Exercise: for every item that follows, state its recorded IC50.
target: LF protease activity (Bacillus anthracis); test: biochemical; settings: IC50 Protease Activity
Sequence (P15917 34-809 limits assumed): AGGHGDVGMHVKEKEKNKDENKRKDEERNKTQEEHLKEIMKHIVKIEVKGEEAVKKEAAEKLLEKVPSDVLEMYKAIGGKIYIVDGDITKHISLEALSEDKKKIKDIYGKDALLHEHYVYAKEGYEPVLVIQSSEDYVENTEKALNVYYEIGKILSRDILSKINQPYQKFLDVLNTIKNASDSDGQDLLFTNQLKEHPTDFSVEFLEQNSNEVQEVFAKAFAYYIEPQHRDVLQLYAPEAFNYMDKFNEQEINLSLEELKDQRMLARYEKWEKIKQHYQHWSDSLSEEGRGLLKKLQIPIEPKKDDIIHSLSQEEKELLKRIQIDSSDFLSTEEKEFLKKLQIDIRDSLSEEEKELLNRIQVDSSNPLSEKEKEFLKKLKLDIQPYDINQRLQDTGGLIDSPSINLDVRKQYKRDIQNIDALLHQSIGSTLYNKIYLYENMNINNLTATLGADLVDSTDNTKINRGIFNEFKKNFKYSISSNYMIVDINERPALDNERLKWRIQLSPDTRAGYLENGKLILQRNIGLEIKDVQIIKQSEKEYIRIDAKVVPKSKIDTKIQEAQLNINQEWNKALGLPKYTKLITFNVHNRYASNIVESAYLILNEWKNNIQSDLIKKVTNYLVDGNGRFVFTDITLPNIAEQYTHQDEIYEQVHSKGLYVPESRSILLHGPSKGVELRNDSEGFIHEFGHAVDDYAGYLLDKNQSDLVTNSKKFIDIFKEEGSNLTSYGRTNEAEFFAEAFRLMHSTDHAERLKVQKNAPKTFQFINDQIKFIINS
// return numeric value only (unit: µM, not printed)

Ask: Give the measured IC50 of CSc1ccc(/C=C2/C(C)=C(CC(=O)O)c3cc(F)ccc32)cc1 [sulindac sulfide, Sulindac Sulfide] .
Reply: 19.1

Ask: Give the measured IC50 of CC1=C(CC(=O)NCCCN=[N+]=[N-])c2cc(F)ccc2/C1=C\c1ccc([S+](C)[O-])cc1 (centres unmarked) .
Reply: 420

Ask: Give the measured IC50 of "CCCCc1ccc(C(=O)O)nc1" .
Reply: 530

Ask: Give the measured IC50 of "CCCCc1ccc(C(=O)NCCCn2cc(CNC(C)=O)nn2)nc1" .
Reply: 1.2

Ask: Give the measured IC50 of CC1=C(CC(=O)O)c2cc(F)ccc2/C1=C\c1ccc([S+](C)[O-])cc1 (centres unmarked) .
Reply: 173
